- Assay System: T-type calcium channel (Homo sapiens, UniProt O95180)
- Test Method Notes: T-type channel blocking, FLIPR data (Table 6)
- Type: cell-based
- Conditions: CAv3.2, inactivated state, read-out: CAv3.2 IC50 Inact.
pIC50: −log10 of the molar value.
Result Type: pIC50

Before answering, review these 5 worked examples.
[[record]]
compound = "O=C(NC[C@H]1C[C@H](S(=O)(=O)c2cccc(Cl)c2)C1)c1ccc(C(F)(F)F)cn1"
result_type = "pIC50"
experimental_value = 5.00

[[record]]
compound = "O=C(NC[C@H]1C[C@H](S(=O)(=O)c2cc(F)cc(C(F)(F)F)c2)C1)c1ccc(OCC(F)(F)F)nc1"
result_type = "pIC50"
experimental_value = 6.13

[[record]]
compound = "CC(C)([C@H]1C[C@H](NC(=O)c2ccc(C(F)(F)F)cc2S(C)(=O)=O)C1)S(=O)(=O)c1cccc(OC(F)(F)F)c1"
result_type = "pIC50"
experimental_value = 5.26

[[record]]
compound = "CC(C)([C@H]1C[C@@H](NC(=O)c2ccnc(C(F)(F)F)n2)C1)S(=O)(=O)c1cc(F)cc(C(F)(F)F)c1"
result_type = "pIC50"
experimental_value = 5.49

[[record]]
compound = "CC(C)([C@H]1C[C@@H](C(=O)Nc2ccc(C(F)(F)F)nc2)C1)S(=O)(=O)c1cccc(C(F)(F)F)c1"
result_type = "pIC50"
experimental_value = 5.68


(1) CC(C)([C@H]1C[C@H](NC(=O)c2ccnc(C(F)(F)F)n2)C1)S(=O)(=O)c1cc(F)cc(C(F)(F)F)c1
(2) O=S(=O)(c1cc(F)cc(C(F)(F)F)c1)[C@H]1C[C@@H](CNc2ccnc(C(F)(F)F)n2)C1
Q. Please tell me which of the two, 1 or 2 , has the higher reported pIC50 value. # reply format: chosen label
A. 2
(2: 5.44, 1: 5.01)

---

- Assay System: UniProt Q13936
- Test Method Notes: L-type (CAv1.2) channel blocking, FLIPR data (Table 6)
- Format: cell-based
- Conditions: inactivated state, read-out: CAv1.2 IC50 Inact.
pIC50 values by entry
Quick note: pIC50 means taking -log10 of the concentration in moles per liter.

[[record]]
given_smiles = "CC(C)([C@H]1C[C@H](CNc2cc(C(F)(F)F)n[nH]2)C1)S(=O)(=O)c1cccc(C(F)(F)F)c1"
experimental_value = 5.55

[[record]]
given_smiles = "CC(C)([C@H]1C[C@H](C(=O)Nc2ccc(C(F)(F)F)cc2Cl)C1)S(=O)(=O)c1cccc(C(F)(F)F)c1"
experimental_value = 5.66

[[record]]
given_smiles = "CC(C)([C@H]1C[C@H](CNc2ccc(F)c(Cl)c2)C1)S(=O)(=O)c1cccc(C(F)(F)F)c1"
experimental_value = 6.00

[[record]]
given_smiles = "CC(C)([C@H]1C[C@H](C(=O)Nc2cc(C(F)(F)F)n[nH]2)C1)S(=O)(=O)c1cccc(C(F)(F)F)c1"
experimental_value = 5.14


API: the following record is the query input.
Q. Indicate its recorded pIC50; the compound in question is CC(C)([C@H]1C[C@H](CNc2ccc(Cl)c(F)c2)C1)S(=O)(=O)c1cccc(C(F)(F)F)c1
A. 5.87

---

- Assay System: human α1H T-type channels (Homo sapiens)
- Sequence (O95180 whole entry): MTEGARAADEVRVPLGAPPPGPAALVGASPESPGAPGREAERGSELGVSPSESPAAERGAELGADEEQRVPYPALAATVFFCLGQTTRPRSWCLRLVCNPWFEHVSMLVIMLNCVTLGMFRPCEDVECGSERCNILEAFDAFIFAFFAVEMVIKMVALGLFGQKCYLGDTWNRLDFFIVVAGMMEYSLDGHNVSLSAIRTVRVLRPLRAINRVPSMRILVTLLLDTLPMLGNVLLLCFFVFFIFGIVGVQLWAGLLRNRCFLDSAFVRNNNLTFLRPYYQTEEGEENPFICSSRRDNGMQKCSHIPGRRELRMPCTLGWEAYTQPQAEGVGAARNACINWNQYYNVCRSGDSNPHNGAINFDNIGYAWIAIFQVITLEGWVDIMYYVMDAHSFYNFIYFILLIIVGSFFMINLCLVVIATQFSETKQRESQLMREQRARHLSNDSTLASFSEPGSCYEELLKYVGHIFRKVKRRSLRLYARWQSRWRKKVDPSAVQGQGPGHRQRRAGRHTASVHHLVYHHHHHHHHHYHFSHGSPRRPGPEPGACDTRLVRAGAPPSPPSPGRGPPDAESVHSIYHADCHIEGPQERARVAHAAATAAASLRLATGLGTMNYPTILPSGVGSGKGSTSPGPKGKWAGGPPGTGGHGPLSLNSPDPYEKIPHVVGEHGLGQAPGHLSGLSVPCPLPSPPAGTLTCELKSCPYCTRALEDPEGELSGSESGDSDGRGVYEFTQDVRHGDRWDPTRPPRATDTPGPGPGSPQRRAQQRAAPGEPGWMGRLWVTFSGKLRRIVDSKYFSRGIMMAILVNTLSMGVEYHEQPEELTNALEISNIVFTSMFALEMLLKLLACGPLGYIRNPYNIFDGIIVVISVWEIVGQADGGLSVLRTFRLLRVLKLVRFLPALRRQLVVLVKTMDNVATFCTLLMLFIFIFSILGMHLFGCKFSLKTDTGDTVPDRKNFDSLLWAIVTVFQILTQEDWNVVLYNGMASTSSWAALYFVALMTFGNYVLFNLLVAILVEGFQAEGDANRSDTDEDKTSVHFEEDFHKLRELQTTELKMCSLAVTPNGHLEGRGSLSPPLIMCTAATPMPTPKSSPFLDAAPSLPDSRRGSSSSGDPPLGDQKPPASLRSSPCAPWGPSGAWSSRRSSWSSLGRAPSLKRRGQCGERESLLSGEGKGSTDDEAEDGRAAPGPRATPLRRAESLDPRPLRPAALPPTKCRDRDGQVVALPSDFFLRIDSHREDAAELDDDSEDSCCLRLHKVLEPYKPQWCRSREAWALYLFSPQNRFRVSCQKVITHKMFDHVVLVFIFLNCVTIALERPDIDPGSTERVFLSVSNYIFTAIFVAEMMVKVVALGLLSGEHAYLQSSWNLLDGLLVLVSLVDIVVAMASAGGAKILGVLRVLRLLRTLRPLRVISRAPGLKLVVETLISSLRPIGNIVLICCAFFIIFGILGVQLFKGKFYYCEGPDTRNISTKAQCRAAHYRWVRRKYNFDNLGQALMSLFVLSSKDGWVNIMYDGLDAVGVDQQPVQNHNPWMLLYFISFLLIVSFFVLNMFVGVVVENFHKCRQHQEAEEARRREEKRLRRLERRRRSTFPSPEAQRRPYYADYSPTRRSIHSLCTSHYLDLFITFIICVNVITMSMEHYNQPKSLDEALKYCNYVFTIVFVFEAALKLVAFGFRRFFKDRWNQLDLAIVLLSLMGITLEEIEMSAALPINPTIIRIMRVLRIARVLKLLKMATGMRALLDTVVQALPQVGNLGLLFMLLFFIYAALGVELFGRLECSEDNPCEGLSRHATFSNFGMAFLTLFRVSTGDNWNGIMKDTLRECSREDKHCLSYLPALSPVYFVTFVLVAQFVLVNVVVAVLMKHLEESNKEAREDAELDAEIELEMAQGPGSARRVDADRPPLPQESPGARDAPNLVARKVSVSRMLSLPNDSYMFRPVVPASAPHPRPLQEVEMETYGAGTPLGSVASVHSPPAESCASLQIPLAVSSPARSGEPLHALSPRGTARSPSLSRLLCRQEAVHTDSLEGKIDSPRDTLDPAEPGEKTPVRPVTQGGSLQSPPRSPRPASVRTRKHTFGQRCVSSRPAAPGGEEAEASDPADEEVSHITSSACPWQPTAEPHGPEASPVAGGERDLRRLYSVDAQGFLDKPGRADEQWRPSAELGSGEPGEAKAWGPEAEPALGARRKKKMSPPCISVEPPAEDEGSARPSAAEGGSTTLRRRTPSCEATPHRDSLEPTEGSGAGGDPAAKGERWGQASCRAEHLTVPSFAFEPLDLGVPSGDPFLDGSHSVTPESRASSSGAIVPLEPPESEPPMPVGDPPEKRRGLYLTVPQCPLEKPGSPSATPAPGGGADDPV
- Test Method Notes: T-type calcium channel block, whole cell patch clamp, α1H
- Conditions: HEK cells stably expressing human α1H; mainly non-inactivated protocol; values above 10,000 nM represented as 10000
pIC50: −log10 of the molar value.
Result Type: pIC50

[[record]]
compound = "CS(=O)(=O)c1cc(C(F)(F)F)cnc1C(=O)N[C@H]1CC[C@@](F)(S(=O)(=O)c2cc(F)cc(C(F)(F)F)c2)CC1 [Compound 331]"
assay_system = "human α1H T-type channels (Homo sapiens)"
experimental_value = 5.82


(1) CN(CCc1ccc(Cl)c(Cl)c1)C(=O)C(C)(C)S(=O)(=O)c1cccc(C(F)(F)F)c1 [Compound 453]
(2) O=C(N[C@H]1CC[C@H](S(=O)(=O)c2cccc(C(F)(F)F)c2)CC1)c1ccc(F)c(C(F)(F)F)c1 [Compound 58]
(3) Cc1cc(C(=O)N[C@H]2CC[C@H](CS(=O)(=O)c3cccc(C(F)(F)F)c3)CC2)c(C(F)(F)F)o1 [Compound 172]
Q. rank_up(items): orders items by reported pIC50 in ascending numerical order. # respond with the labels, arranged in the requested order
A. 3, 1, 2

---

- Assay System: T-type calcium channel (Homo sapiens, UniProt O95180)
- Test Method Notes: T-type channel blocking, FLIPR data (Table 6)
- Format: cell-based
- Conditions: CAv3.2, closed state, read-out: CAv3.2 IC50 Closed
pIC50: −log10 of the molar value.
Result Type: pIC50

[[record]]
molecule = "CC(C)(C[C@H]1C[C@@H](NC(=O)[C@H]2CCCC[C@@H]2N)C1)S(=O)(=O)c1cccc(C(F)(F)F)c1 [Compound 745]"
result_type = "pIC50"
experimental_value = "≤ 5.00"


Q. Indicate its recorded pIC50; the molecule in question is CC(C)([C@H]1C[C@@H](CNc2cc(C(F)(F)F)n[nH]2)C1)S(=O)(=O)c1cccc(C(F)(F)F)c1 [Compound 755]
A. ≤ 5.00

Q. Indicate its recorded pIC50; the molecule in question is O=C(NC[C@H]1C[C@H](S(=O)(=O)c2cc(F)cc(C(F)(F)F)c2)C1)c1ccc(C(F)(F)F)nc1 [Compound 704]
A. ≤ 5.00

Q. Indicate its recorded pIC50; the molecule in question is CC(C)(C[C@H]1C[C@H](NC(=O)c2ccc(Cl)cc2S(C)(=O)=O)C1)S(=O)(=O)c1cccc(C(F)(F)F)c1 [Compound 718]
A. 5.25

---

- Assay System: Human Cav 2.2 channels (Homo sapiens)
- Test Method Notes: Fluorescent assay for CaV2.2 channels using potassium depolarization (VIPR/FLIPR)
- Type: cell-based
- Conditions: FLIPR data; closed state; read-out: CAv2.2 IC50 Closed
pIC50: −log10 of the molar value.
Result Type: pIC50

Before answering, review these 3 worked examples.
[[record]]
compound = "CC(C)S(=O)(=O)c1cc(C(F)(F)F)cnc1C(=O)N[C@H]1C[C@@H](C(C)(C)S(=O)(=O)c2cc(F)cc(C(F)(F)F)c2)C1 [Compound 586]"
experimental_value = 5.00

[[record]]
compound = "N[C@H]1CCCCC1C(=O)NC[C@H]1C[C@H](S(=O)(=O)c2cccc(OC(F)(F)F)c2)C1 (some centres unmarked) [Compound 709]"
experimental_value = 5.12

[[record]]
compound = "CC(C)([C@H]1C[C@H](NC(=O)c2ccnc(C(F)(F)F)n2)C1)S(=O)(=O)c1cc(F)cc(C(F)(F)F)c1 [Compound 595]"
experimental_value = 5.44


(I) CC(C)([C@H]1C[C@@H](NS(=O)(=O)c2ccc(F)c(C(F)(F)F)c2)C1)S(=O)(=O)c1cc(F)cc(C(F)(F)F)c1 [Compound 601]
(II) CC(C)(C[C@H]1C[C@@H](NC(=O)CC2(N)CCCCC2)C1)S(=O)(=O)c1cccc(C(F)(F)F)c1 [Compound 739]
Q. Problem: Given the entries I and II , determine which has the lower reported pIC50. # reply format: chosen label
A. I
(I: 5.15, II: 5.54)

(P) CNC1(CC(=O)N[C@H]2C[C@@H](C(C)(C)S(=O)(=O)c3cccc(C(F)(F)F)c3)C2)CCCCC1 [Compound 657]
(Q) CC(C)([C@H]1C[C@H](CNc2ccc(Cl)c(F)c2)C1)S(=O)(=O)c1cccc(C(F)(F)F)c1 [Compound 751]
Q. Problem: Given the entries P and Q , determine which has the lower reported pIC50. # reply format: chosen label
A. P

(a) CC(C)([C@H]1C[C@H](NC(=O)c2ccnc(C(F)(F)F)c2)C1)S(=O)(=O)c1cccc(C(F)(F)F)c1 [Compound 672]
(b) CC(C)([C@H]1C[C@H](C(=O)Nc2ccc(C(F)(F)F)cc2)C1)S(=O)(=O)c1cccc(C(F)(F)F)c1 [Compound 765]
Q. Please tell me which of the two, a or b , has the higher reported pIC50 value. # reply format: chosen label
A. b
(b: 5.47, a: 5.13)

---

- Assay System: UniProt:Q00975
- Test Method Notes: Fluorescent assay for CaV2.2 channels using potassium depolarization (VIPR/FLIPR)
- Assay type: cell-based
- Conditions: FLIPR data; ratio closed/inactivated IC50
Result Type: CAv2.2 IC50 Ratio closed/inact.

Before answering, review these 3 worked examples.
[[record]]
compound = "CC(C)([C@H]1C[C@H](NC(=O)c2ccc(C(F)(F)F)cc2)C1)S(=O)(=O)c1cccc(C(F)(F)F)c1"
experimental_value = 13

[[record]]
compound = "CC(C)([C@H]1C[C@H](NS(=O)(=O)c2ccc(F)c(Cl)c2)C1)S(=O)(=O)c1cc(F)cc(C(F)(F)F)c1"
experimental_value = 2.7

[[record]]
compound = "CC(C)([C@H]1C[C@@H](CNC(=O)c2ncc(C(F)(F)F)cn2)C1)S(=O)(=O)c1cccc(C(F)(F)F)c1"
experimental_value = 12.4


(I) CC(C)S(=O)(=O)c1cc(C(F)(F)F)cnc1C(=O)N[C@H]1C[C@H](C(C)(C)S(=O)(=O)c2cccc(OC(F)(F)F)c2)C1
(II) CC(C)([C@H]1C[C@H](NC(=O)c2ncc(C(F)(F)F)cc2S(C)(=O)=O)C1)S(=O)(=O)c1cc(F)cc(C(F)(F)F)c1
(III) CC(C)([C@H]1C[C@@H](NC(=O)c2ccc(C(F)(F)F)nc2)C1)S(=O)(=O)c1cccc(C(F)(F)F)c1
(IV) O=C(NC[C@H]1C[C@H](S(=O)(=O)c2cc(F)cc(C(F)(F)F)c2)C1)c1ccc(Cl)cn1
Q. rank_up(items): orders items by reported CAv2.2 IC50 Ratio closed/inact. in ascending numerical order. # respond with the labels, arranged in the requested order
A. IV, II, III, I

(1) CC(C)([C@H]1C[C@@H](NC(=O)c2cc(C(F)(F)F)n[nH]2)C1)S(=O)(=O)c1cccc(OC(F)(F)F)c1
(2) O=S(=O)(c1cc(F)cc(C(F)(F)F)c1)[C@H]1C[C@@H](CNc2ccnc(C(F)(F)F)n2)C1
(3) CC(C)([C@H]1C[C@@H](NS(=O)(=O)c2ccc(OC(F)(F)F)cc2)C1)S(=O)(=O)c1cccc(C(F)(F)F)c1
Q. Task field, ranking: reported CAv2.2 IC50 Ratio closed/inact., descending order. # respond with the labels, arranged in the requested order
A. 3, 1, 2
(3: 14.7, 1: 7.1, 2: 3.1)
